- Tested on: P388 leukemia ip, CD2F1 mice, survival T/C
- testName: NCI In Vivo Anticancer Drug Screen. Data for tumor model P388 Leukemia (intraperitoneal) in CD2F1 (CDF1) mice
- assaySetup: endpoint: median survival time; dose: 400.0 mg/kg/injection; schedule: Q01DX009 (ip); vehicle: saline
Toxic doses and inconclusive results are not listed. Rule for the calls: active = survival T/C of 150% or more; inactive = T/C below 125% in these data.
Write down the outcome that applies. Available outcomes: 1 (active), -1 (inactive)

>  <compound>
Nc1ccc[nH]c1=O

>  <assignedCategory>
-1

$$$$
>  <compound>
O=P(N1CCCC1)(N1CCCC1)N1CCCC1

>  <assignedCategory>
-1

$$$$
>  <compound>
Nc1ccn(C2OC3COC2C3O)c(=O)n1 (stereo not drawn)

>  <assignedCategory>
-1

$$$$
>  <compound>
CC(C)=CCC1=C(O)c2ccccc2C(=O)C1=O

>  <assignedCategory>
-1

$$$$
>  <compound>
O=C1Nc2ccccc2SC1c1ccccc1Cl (stereo not drawn)

>  <assignedCategory>
-1

$$$$
>  <compound>
COCCOC(C)C(=O)C(O)S(=O)(=O)O (stereo not drawn)

>  <assignedCategory>
1

$$$$

Query :: Would you mind telling me which call this test gave OC1C(O)C(O)C(O)C(O)C1O (stereo not drawn) ?
Result :: -1

Query :: Check the results log: what was the call for CCOC(=O)CC(=O)C(OC)OC ?
Result :: -1

====

- Tested on: P388 leukemia ip, CD2F1 mice, survival T/C
- testName: NCI In Vivo Anticancer Drug Screen. Data for tumor model P388 Leukemia (intraperitoneal) in CD2F1 (CDF1) mice
- assaySetup: endpoint: median survival time; dose: 100.0 mg/kg/injection; schedule: Q04DX002 (ip); vehicle: saline; higher = longer survival
Toxic doses and inconclusive results are not listed.
The entries below are paired with their reported T/C.

Here's what some known entries look like.
>  <smilesRecord>
N[C@@H](C(=O)O)[C@@H]1C=CCCC1

>  <observationType>
T/C

>  <readoutValue>
101 % of control

$$$$
>  <smilesRecord>
C[N+]1(C)N=C([O-])N(c2ccc(Cl)cc2)C1=O

>  <observationType>
T/C

>  <readoutValue>
100 % of control

$$$$
>  <smilesRecord>
Cn1ccc(=O)n(C)c1=O

>  <observationType>
T/C

>  <readoutValue>
107 % of control

$$$$
>  <smilesRecord>
COc1ccc(S(=O)(=O)c2cnc(N3CCCCC3)nc2N)cc1

>  <observationType>
T/C

>  <readoutValue>
100 % of control

$$$$
>  <smilesRecord>
CCCS(=O)(=O)CCC(=O)c1cccs1

>  <observationType>
T/C

>  <readoutValue>
104 % of control

$$$$

Query :: Would you mind telling me what T/C value was observed for Cc1cccc(NC(=O)CCC(=O)NS(C)(=O)=O)c1 ?
Result :: 103 % of control

Query :: Fill in the blank: the reported T/C of C[n+]1ccccc1-c1ccc[n+](CCC[n+]2cccc(-c3cccc[n+]3C)c2)c1 is ____.
Result :: 105 % of control

====

- Test system: P388 leukemia ip, CD2F1 mice, survival T/C
- testName: NCI In Vivo Anticancer Drug Screen. Data for tumor model P388 Leukemia (intraperitoneal) in CD2F1 (CDF1) mice
- assaySetup: endpoint: median survival time; dose: 50.0 mg/kg/injection; schedule: Q01DX005 (ip); vehicle: Klucel (hydroxypropylcellulose) (HPC); higher = longer survival
Inconclusive results and toxic doses are left out.
observationType: T/C

Please review the following examples before continuing.
>  <compound>
CCCN(CCC)C(=O)C(c1ccccc1)C(O)(c1ccccc1)c1ccccc1 (stereo unspecified)

>  <observationType>
T/C

>  <readoutValue>
100 % of control

$$$$
>  <compound>
Cn1cnc([N+](=O)[O-])c1Sc1ccncc1S(N)(=O)=O

>  <observationType>
T/C

>  <readoutValue>
118 % of control

$$$$
>  <compound>
c1ccc2c(-c3ccc(N4CCOCC4)cc3)c3ccc4ccccc4c3cc2c1

>  <observationType>
T/C

>  <readoutValue>
91 % of control

$$$$
>  <compound>
CCCCOc1ccc(-n2c(=O)[nH]c3ccccc3c2=O)cc1

>  <observationType>
T/C

>  <readoutValue>
96 % of control

$$$$
>  <compound>
O=C1NCC2CCCCC12 (stereo unspecified)

>  <observationType>
T/C

>  <readoutValue>
107 % of control

$$$$

Query :: Would you kindly share the measured T/C for COc1cccc(CCN2C(=O)CCC3=C2CCC3=O)c1 ?
Result :: 105 % of control

Query :: Look up T/C: O=c1c(O)c(-c2ccccc2)c1=O
Result :: 100 % of control

Query :: Any idea what T/C was measured for O=c1c2ccccc2c(=O)n2n1C1C=CC2C1 ?
Result :: 107 % of control

Query :: What does the record list as T/C for COc1ccc(Cc2c3cc(OC)c(OC)cc3cc[n+]2CC(=O)c2ccc(F)cc2)cc1OC ?
Result :: 100 % of control

Query :: Please report the recorded T/C for COc1cc(C(=O)Nc2cccc(Cl)c2Cl)cc(OC)c1OC .
Result :: 104 % of control

Query :: Look up T/C for this compound: Clc1ccc(-c2n[nH]c3c2Cc2ccccc2-3)cc1Cl
Result :: 97 % of control

Query :: Fill in the blank: the reported T/C of O=C(NC(Cc1ccccc1)C(=O)O)C(Cl)Cl (stereo unspecified) is ____.
Result :: 91 % of control

Query :: What measured T/C goes with COC(=O)C1(C(=O)O)ON1C(C)(C)C (stereo unspecified) ?
Result :: 100 % of control

Query :: Quick one: T/C of C/C=C/C=C/C1=C2C(=O)N(c3ccccc3)N=C2CC(C)O1 (stereo unspecified) ?
Result :: 100 % of control

Query :: Requested read-out: T/C. Entry: CC1C2Cc3ccc(O)cc3C1(C)CCN2CCC(=O)c1ccccc1 (stereo unspecified)
Result :: 92 % of control

Query :: Requested read-out: T/C. Entry: O=C1CCN2CO[C@H](c3ccccc3)C[C@@H]2C1
Result :: 102 % of control

Query :: Field request: T/C | item: C=C(C)C(=NC(C)(C)C)N(C(C)C)C(C)C
Result :: 98 % of control

Query :: Which measured T/C value corresponds to c1ccc(CSCCOCCOCCSCc2ccccn2)nc1 ?
Result :: 101 % of control

Query :: For the compound O=c1c2ccccc2[nH]c2c1[nH]c1ccccc12 , what T/C is on record?
Result :: 89 % of control

Query :: Which T/C reading was recorded for the compound CCN(CC)CCOC(=O)C(OCC(C)C)(c1ccccc1)c1ccccc1 ?
Result :: 110 % of control
